Below are pKi values recorded for cruzain (Trypanosoma cruzi, UniProt P25779).
Please report pKi as the negative decimal logarithm of the molar concentration, giving only the number.

Example results:
>  <molecule>
CC(C)C[C@H](NC(=O)c1cc(C(C)(C)C)nn1C)C(=O)NC1(C#N)CC1 [Compound 30]

>  <pKi>
7.60

$$$$
>  <molecule>
N#CCNC(=O)[C@H](Cc1ccccc1)NC(=O)c1cccs1 [Compound 16]

>  <pKi>
6.10

$$$$
>  <molecule>
N#CCNC(=O)[C@H](Cc1ccccc1)NC(=O)c1cnccn1 [Compound 19]

>  <pKi>
5.80

$$$$

# context switch: different molecule, same pKi
Prompt line: For cruzain (Trypanosoma cruzi, UniProt P25779), provide pKi of N#Cc1cccc(C[C@H](NC(=O)c2ccccc2)C(=O)NC2(C#N)CC2)c1 [Compound 36] please.
Response line: 5.40

* * *

tested on: LLCMK2 cells; test: Lysis of LLCMK2 host cells; assay type: cell-based; conditions: 32 μM
readout-kind: %cell lysis at 32 μM LLCMK2 (%)
Numbers only; they are read as %.

>  <input-smiles>
N#CC1(NC(=O)C2(NC(=O)c3ccccc3)CCCC2)CC1

>  <u>
%

>  <%cell lysis at 32 μM LLCMK2>
26

$$$$

Prompt line: For LLCMK2 cells, provide %cell lysis at 32 μM LLCMK2 of Cn1nc(C(F)(F)F)cc1C(=O)N[C@@H](Cc1ccccc1)C(=O)NCC#N please.
Response line: 19

Prompt line: For LLCMK2 cells, provide %cell lysis at 32 μM LLCMK2 of N#CCNC(=O)[C@H](Cc1ccccc1)NC(=O)c1cc(=O)[nH]c(=O)[nH]1 please.
Response line: 22

Prompt line: For LLCMK2 cells, provide %cell lysis at 32 μM LLCMK2 of CC(C)(C)OC(=O)N[C@@H](Cc1ccccc1)C(=O)NCC#N please.
Response line: 31

* * *

readout-kind: melting point

Example results:
>  <compound>
N#CCNC(=O)C1(NC(=O)c2ccccc2)CCCC1 [Compound 14]

>  <readout-kind>
melting point

>  <endpoint-result>
165 to 166 °C

$$$$
>  <compound>
N#Cc1cccc(C[C@H](NC(=O)c2ccccc2)C(=O)NC2(C#N)CC2)c1 [Compound 36]

>  <readout-kind>
melting point

>  <endpoint-result>
191 to 194 °C

$$$$
>  <compound>
N#CCNC(=O)[C@H](Cc1c[nH]c2ccccc12)NC(=O)c1ccccc1 [Compound 12]

>  <readout-kind>
melting point

>  <endpoint-result>
158 to 159 °C

$$$$

Prompt line: If you can, please state the reported melting point value of CC(C)C[C@H](NC(=O)c1cc(C(C)(C)C)nn1C)C(=O)NCC#N [Compound 29] .
Response line: 179 to 180 °C

* * *

target: cruzain (Trypanosoma cruzi);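 note: fluorometric read-out of substrate hydrolysis at excitation 355 nm and emission 460 nm, initial rates over 5 min, Ki from nonlinear kinetic fits, duplicate runs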
Sequence (P25779 123-337 limits assumed): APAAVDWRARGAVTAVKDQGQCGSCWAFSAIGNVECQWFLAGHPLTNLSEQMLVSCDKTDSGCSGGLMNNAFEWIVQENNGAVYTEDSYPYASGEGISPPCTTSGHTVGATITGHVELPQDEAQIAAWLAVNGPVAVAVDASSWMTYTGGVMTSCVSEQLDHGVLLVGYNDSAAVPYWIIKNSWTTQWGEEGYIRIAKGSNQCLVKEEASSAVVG
pKi: −log10 of the molar value.
// 0.0 strictly below 6 in pKi; 1.0 otherwise

Past entries and their recorded results:
>  <input-smiles>
N#CCNC(=O)[C@H](Cc1ccccc1)NC(=O)c1cncc(Br)c1

>  <label-value>
1.0

$$$$
>  <input-smiles>
Cn1nc(C(F)(F)F)cc1C(=O)N[C@@H](Cc1ccccc1)C(=O)NC1(C#N)CC1

>  <label-value>
1.0

$$$$
>  <input-smiles>
N#CCNC(=O)[C@H](Cc1ccc(O)cc1)NC(=O)c1ccccc1

>  <label-value>
1.0

$$$$
>  <input-smiles>
N#CCNC(=O)[C@H](Cc1ccccc1)NC(=O)OCc1ccccc1

>  <label-value>
1.0

$$$$

Prompt line: Does the molecule N#CCNC(=O)[C@H](CCCNC(=N)N)NC(=O)c1ccccc1 have recorded pKi that is 6 or more?
Response line: 0.0
